molecular target: human ClpP (recombinant WT ClpP) (Homo sapiens); construct: SUMO fusion (pETSUMO2); made in house; host or cells: E. coli SG1146; assay: ClpP enzymatic assays with fluorogenic substrates (cell-free); assay type: biochemical; conditions: substrate FITC-casein; without ClpX; read-out: EC50, ClpP cleavage of FITC-casein
Sequence (Q16740 57-277): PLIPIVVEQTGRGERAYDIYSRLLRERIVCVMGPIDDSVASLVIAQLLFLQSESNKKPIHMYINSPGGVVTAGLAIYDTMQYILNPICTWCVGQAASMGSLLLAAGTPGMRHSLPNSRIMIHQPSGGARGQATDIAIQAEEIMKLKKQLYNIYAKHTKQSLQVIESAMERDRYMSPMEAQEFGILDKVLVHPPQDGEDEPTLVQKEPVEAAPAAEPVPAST
measurementKind: pEC50
Quick note: pEC50 values are minus log10 of concentrations in mol/L.

query: Input O=C1C2=C(CCN(Cc3ccccc3)C2)N2CCN=C2N1Cc1ccc(C(F)(F)F)cc1 , output reported pEC50.
result: 6.34

---

biological target: human ClpP (recombinant WT ClpP) (Homo sapiens); construct: SUMO fusion (pETSUMO2); made in house; host or cells: E. coli SG1146; test: ClpP enzymatic assays with fluorogenic substrates (cell-free); format: biochemical; conditions: substrate Ac-Phe-hArg-Leu-ACC; without ClpX; read-out: EC50, ClpP cleavage of Ac-Phe-hArg-Leu-ACC
measurementKind: pEC50
Quick note: pEC50 values are minus log10 of concentrations in mol/L.

query: Specify pEC50 for O=C1C2=C(CCN(Cc3ccccc3)C2)N2CCN=C2N1Cc1ccc(C(F)(F)F)cc1 [ONC212] and stop.
result: 6.43
